List of inhibition values.
Biological target: Endonuclease 8-like 1 (Homo sapiens) (UniProt Q96FI4);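 note: fluorescence at 594 nm from quenched duplex DNA oligonucleotides released by NEIL1 cleavage and strand separation, reported as reduction of this enzyme activity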
Sequence (Q96FI4 whole entry): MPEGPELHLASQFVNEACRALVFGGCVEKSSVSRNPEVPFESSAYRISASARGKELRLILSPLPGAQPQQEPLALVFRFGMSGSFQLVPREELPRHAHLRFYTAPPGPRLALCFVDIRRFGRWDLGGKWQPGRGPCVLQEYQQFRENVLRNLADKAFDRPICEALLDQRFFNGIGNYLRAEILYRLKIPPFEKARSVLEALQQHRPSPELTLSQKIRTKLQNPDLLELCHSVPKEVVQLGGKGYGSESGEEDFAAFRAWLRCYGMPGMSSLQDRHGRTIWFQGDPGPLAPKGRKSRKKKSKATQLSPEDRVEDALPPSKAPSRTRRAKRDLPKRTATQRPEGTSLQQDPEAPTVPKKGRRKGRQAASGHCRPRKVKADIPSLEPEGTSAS
Conditions: Compound Concentration 10.0 uM, Hit No
Description: Inhibition of NEIL1 by quantifying inhibition of NEIL1-mediated cleavage and dissociation of quenched duplex DNA oligonucleotides, measured as fluorescence at 594 nm.
*1 amine or outer side, *2 acyl side, *3 side chain or, on linkers, in order; H or OH if unused. Where a SMILES comes first, the peptide text is derived from it. Bridges are numbered along the chain shown (N, C = ends). X1 = O=C(CCC[*:2])[*:1]
Express it in %; write the number only.

I would be grateful if you could share the reported inhibition for N#CN1CC[C@@H](C(=O)Nc2nc3c(s2)CN(C(=O)CN=[N+]=[N-])CC3)C1 .
6.22

For the compound shown here, CC(C)NCC(O)COc1ccc(CCOCC2CC2)cc1 (centres undefined) , give the reported inhibition.
-5.99

For Cn1cc(C(=O)OCC2CCN(CCNS(C)(=O)=O)CC2)c2ccccc21 , what is its reported inhibition?
1.28

Requested read-out: inhibition. Entry: COc1ccc(CC(=O)NC(N/C(=N/C#N)Nc2cccc3ncccc23)C(C)(C)C)cc1OC (centres undefined)
3.12

Bench note: what inhibition did NC(=O)c1ccc(CNC(=O)NC[C@H]2CN(Cc3ccc(Cl)c(Cl)c3)CCO2)cc1 show?
7.06

Next:
Which inhibition reading was recorded for the compound Cc1cccc(NC(=O)CN2CCC(c3ccccn3)CC2)c1 ?
-1.77

# get_value(readout='inhibition', item= COc1cc(Nc2ccc([N+](=O)[O-])cc2C(=O)O)cc2ccccc12 )
3.71

Which inhibition reading was recorded for the compound CNC(=O)c1ccc(Nc2ncc(C(F)(F)F)c(NCc3nccnc3N(C)S(C)(=O)=O)n2)cc1 ?
2.28

Look at this compound and give its reported inhibition. CC[C@H](C)[C@@H]1NC(=O)[C@H](Cc2ccc(OC)cc2)NC(=O)CCCSC[C@@H](C(=O)N2CCC[C@H]2C(=O)N[C@@H](CC(C)C)C(=O)NCC(N)=O)NC(=O)[C@H](CC(N)=O)NC(=O)[C@H](CCC(N)=O)NC1=O (Y(Me)IQNCPLG-NH2; linker N-5 via X1)
-0.0556

---

Biological target: Endonuclease III-like protein 1 (Homo sapiens) (UniProt P78549)
Sequence (P78549 whole entry): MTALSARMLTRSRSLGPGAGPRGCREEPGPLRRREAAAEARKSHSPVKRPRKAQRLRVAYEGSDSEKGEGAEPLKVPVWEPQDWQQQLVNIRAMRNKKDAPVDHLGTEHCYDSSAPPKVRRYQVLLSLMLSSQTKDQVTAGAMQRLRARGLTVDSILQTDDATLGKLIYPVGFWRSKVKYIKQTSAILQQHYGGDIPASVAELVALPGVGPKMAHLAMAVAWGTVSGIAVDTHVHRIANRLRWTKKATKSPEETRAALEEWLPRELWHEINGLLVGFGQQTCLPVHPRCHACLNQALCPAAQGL
Details: Compound Concentration 10.0 uM, Hit No
Description: Inhibition of NTHL1 by quantifying inhibition of NTHL1-mediated cleavage and dissociation of quenched duplex DNA oligonucleotides, measured as fluorescence at 594 nm.
measure: inhibition (%)
Report only the number, with the unit % understood.

Form: Entry = C[C@H](N)Cn1ccc2cc(F)c(Cl)cc21 | System = Endonuclease III-like protein 1 (Homo sapiens) (UniProt P78549) | inhibition = ____
6.35

So what inhibition did C[C@H](NC(=O)Nc1cc2[nH]ncc2c(CO)n1)c1ccccn1 get with Endonuclease III-like protein 1 (Homo sapiens) (UniProt P78549)?
-0.801

For Endonuclease III-like protein 1 (Homo sapiens) (UniProt P78549), provide inhibition of C=CCN1C[C@H](C)N([C@H](c2ccc(C(=O)N(CC)CC)cc2)c2cccc(O)c2)C[C@H]1C please.
1.92

***
Requested read-out inhibition, target or system Endonuclease III-like protein 1 (Homo sapiens) (UniProt P78549), entry CC1(C)C(=O)C(C)(C)c2cc(C(=O)Nc3ccc(C(=O)O)cc3)ccc21;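 note: enzyme assay tracking NTHL1 cutting and release of a quenched double-stranded DNA oligo substrate, read as fluorescence at 594 nm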
-7.2

Lab note: need inhibition for CC(C)(C)c1ccc2c(c1)CC[C@H]2NC(=O)Nc1cccc2[nH]ncc12 on Endonuclease III-like protein 1 (Homo sapiens) (UniProt P78549), anyone have it?
3.04
